# TESTED_TARGET: ~100 representative kinases (Homo sapiens)
# Construct: Recombinant protein kinase domains with a concentration of 2 μM
# ASSAY_NAME: DSF 100 kinase selectivity screen;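 also: compound tested at 20 µM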
# Format: binding
# COND: protein MAPK9; average of three replicates
# Procedure: Recombinant protein kinase domains with a concentration of 2 μM were mixed with a 20 μM compound solution in dimethyl sulfoxide (DMSO), 20 mM Hepes (pH 7.5), and 500 mM NaCl. SYPRO Orange (5000×, Invitrogen) was added as a fluorescence probe (1μl/ml). Subsequently, temperature-dependent protein unfolding profiles were measured using the QuantStudio 5 realtime PCR machine (Thermo Fisher Scientific, Waltham, MA, USA). […] The temperature was raised with a step rate of 3°C/min. […]
VALUE_KIND: dTm (K)
Provide the reading as a plain figure in K.

The cases that follow already have their dTm on record.
INSERT INTO results (molecule, scale_unit, result) VALUES
  ('O=C(Nc1cccc(-c2c[nH]c3ncnc(N4CCOCC4)c23)c1)C1(C(=O)Nc2cccc3c2CCC3)CC1', 'K', 4.16),
  ('C[C@@H]1CN(c2cc(-c3n[nH]c4ccc(OC5(C)CC5)cc34)ncn2)C[C@H](C)O1', 'K', 0.30),
  ('O=C(Nc1ccccc1)C1(C(=O)Nc2cccc(-c3c[nH]c4ncnc(N5CCOCC5)c34)c2)CC1', 'K', 2.81),
  ('O=C(Nc1ccc(F)cc1)C1(C(=O)Nc2cccc(-c3c[nH]c4ncnc(N5CCOCC5)c34)c2)CC1', 'K', 2.87),
  ('CNC(=O)c1cc(Oc2ccc(NC(=O)Nc3cc(C(C)(C)C)nn3-c3ccc4ncccc4c3)c(F)c2)ccn1 [Rebastinib, reference compound]', 'K', 9.78),
  ('O=C(Nc1cccc(-c2c[nH]c3ncnc(N4CCOCC4)c23)c1)c1cccn(-c2ccc(F)cc2)c1=O', 'K', 5.57);

Measured dTm, `CCNc1nc(Nc2cc(F)c(C(=O)N3CCOCC3)cc2OC)ncc1C(F)(F)F` : 0.58

----------
# TESTED_TARGET: ~100 representative kinases (Homo sapiens, UniProt P49761)
# Construct: Recombinant protein kinase domains with a concentration of 2 μM
# Sequence (P49761 whole entry, the tested form may be a part): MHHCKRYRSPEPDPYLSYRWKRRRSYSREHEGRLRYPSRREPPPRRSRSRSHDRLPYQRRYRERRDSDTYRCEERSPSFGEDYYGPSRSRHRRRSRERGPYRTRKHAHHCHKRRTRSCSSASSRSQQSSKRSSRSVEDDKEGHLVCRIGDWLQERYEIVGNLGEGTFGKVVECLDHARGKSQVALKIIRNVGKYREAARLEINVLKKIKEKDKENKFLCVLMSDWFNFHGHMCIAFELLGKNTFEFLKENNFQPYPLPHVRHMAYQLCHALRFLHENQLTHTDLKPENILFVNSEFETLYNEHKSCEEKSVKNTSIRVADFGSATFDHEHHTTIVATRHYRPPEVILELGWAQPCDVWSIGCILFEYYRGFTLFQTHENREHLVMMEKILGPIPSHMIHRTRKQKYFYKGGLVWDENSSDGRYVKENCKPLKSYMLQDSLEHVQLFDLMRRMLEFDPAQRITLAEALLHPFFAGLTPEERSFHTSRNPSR
# ASSAY_NAME: DSF 100 kinase selectivity screen;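 also: compound tested at 20 µM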
# Type: binding
# COND: Protein CLK3; average of three replicates
Consider the cut-off 4 K. If the recorded dTm is strictly smaller, the label is True; if not, the label is False.

Below, 8 molecules whose answers are already recorded.
INSERT INTO measurements (molecule, tested_target, assigned_label) VALUES
  ('O=C(Nc1ccc(F)cc1)C1(C(=O)Nc2cccc(-c3c[nH]c4ncnc(N5CCOCC5)c34)c2)CC1 [Compound 2]', '~100 representative kinases (Homo sapiens, UniProt P49761)', 'True'),
  ('CC(C)(C)c1cccc(NC(=O)C2(C(=O)Nc3cccc(-c4c[nH]c5ncnc(N6CCOCC6)c45)c3)CC2)c1 [Compound 22]', '~100 representative kinases (Homo sapiens, UniProt P49761)', 'False'),
  ('Cn1cc(-c2c[nH]c3ncnc(N4CCOCC4)c23)cc1C#N [PFE-360]', '~100 representative kinases (Homo sapiens, UniProt P49761)', 'False'),
  ('COc1cc2c(Oc3ccc(NC(=O)C4(C(=O)Nc5ccc(F)cc5)CC4)cc3F)ccnc2cc1OCCCN1CCOCC1 [Foretinib, reference compound]', '~100 representative kinases (Homo sapiens, UniProt P49761)', 'True'),
  ('O=C(Nc1cccc(-c2c[nH]c3ncnc(N4CCOCC4)c23)c1)C1(C(=O)Nc2ccc(F)c(Br)c2)CC1 [Compound 19]', '~100 representative kinases (Homo sapiens, UniProt P49761)', 'False'),
  ('O=C(Nc1ccc(Cl)cc1)C1(C(=O)Nc2cccc(-c3c[nH]c4ncnc(N5CCOCC5)c34)c2)CC1 [Compound 13]', '~100 representative kinases (Homo sapiens, UniProt P49761)', 'False'),
  ('O=C(Nc1cccc(-c2c[nH]c3ncnc(N4CCOCC4)c23)c1)C1(C(=O)Nc2ccc(F)c(Cl)c2)CC1 [Compound 18]', '~100 representative kinases (Homo sapiens, UniProt P49761)', 'False'),
  ('Cc1ccc(C(=O)Nc2ccc(CN3CCN(C)CC3)c(C(F)(F)F)c2)cc1C#Cc1c[nH]c2ncnc(N3CCOCC3)c12 [Compound 1]', '~100 representative kinases (Homo sapiens, UniProt P49761)', 'False');

API: the following record is the query input.
# check: dTm < 4 K for CCSc1nc(NC)c2c(-c3cccc(NC(=O)Nc4cc(C(C)(C)C)nn4-c4ccc(C)cc4)c3)c[nH]c2n1 [Compound 32] True
